B1: OR4K15 (parent)
chain: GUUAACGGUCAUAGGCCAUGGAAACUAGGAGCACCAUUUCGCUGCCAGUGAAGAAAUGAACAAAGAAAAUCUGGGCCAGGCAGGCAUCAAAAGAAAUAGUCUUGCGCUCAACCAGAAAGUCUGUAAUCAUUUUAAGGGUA

variants of: B1; assay: self-cleavage, relative activity (ratio to wild type); higher = more cleavage; in vitro, sequencing; the parent is a self-cleaving ribozyme

mutant	self-cleavage
U3C G119A	1.44
A55G C85U	1.27
A54U U87C	1.34
U9C A135U	0.57
A18U G104A	0.05
G74A U124A	0.1
C76A A90G	0.14
U12C A118U	0.22
A18G C85U	0.98
U108C A118U	0
U43A U132C	1.86
A64G A95G	1.12
C61U A91U	1.73
A62U A125G	0.71
A62C A66G	1.51
U43C A135G	2.01

Data origin, for the record: the RNAGym collection of RNA variant scans (doi:10.7554/elife.90254)
